- Target under test: SHV-2 (Klebsiella pneumoniae)
- Sequence (P0A9Z8 22-286): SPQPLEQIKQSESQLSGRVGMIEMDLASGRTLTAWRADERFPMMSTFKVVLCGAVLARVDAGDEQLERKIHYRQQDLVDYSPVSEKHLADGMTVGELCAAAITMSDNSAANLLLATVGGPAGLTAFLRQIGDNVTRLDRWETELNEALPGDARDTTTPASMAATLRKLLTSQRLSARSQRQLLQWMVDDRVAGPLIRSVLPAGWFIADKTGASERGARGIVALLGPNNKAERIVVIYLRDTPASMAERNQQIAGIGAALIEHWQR
- Experiment description: Steady-state kinetic β-lactamase inhibition, SHV-2
Property measured: Ki (µM)

compound="O=C(N[C@H]1CCCCN(c2nnn[nH]2)C1=O)c1cc(C(F)(F)F)cc2nc[nH]c12.O=CO [Compound 21, formate]" result=60

###

- Target under test: NDM-1 (Klebsiella pneumoniae, UniProt C7C422)
- Construct: SUMO tag (cleaved yes)
- Sequence (C7C422 29-270, looked up, species assumed): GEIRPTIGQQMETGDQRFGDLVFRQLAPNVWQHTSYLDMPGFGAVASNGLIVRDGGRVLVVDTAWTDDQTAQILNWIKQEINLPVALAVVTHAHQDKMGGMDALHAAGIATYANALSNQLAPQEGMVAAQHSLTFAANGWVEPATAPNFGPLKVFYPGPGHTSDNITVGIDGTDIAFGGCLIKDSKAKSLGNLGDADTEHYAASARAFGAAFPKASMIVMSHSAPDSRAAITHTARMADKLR
- Experiment description: Steady-state kinetic nitrocefin hydrolysis inhibition, NDM-1
- Details: nitrocefin 10 μM, 1 μM ZnSO4; Ki=IC50/([S]/Km+1)
// values below are reported Ki
Property measured: Ki (µM)

compound=O=C(Nc1nnn[nH]1)[C@@H]1CCN(C(=O)c2cccc(C(F)(F)F)c2)C1 target_under_test="NDM-1 (Klebsiella pneumoniae, UniProt C7C422)" result=48
compound="O=C(Nc1nnn[nH]1)C1CN(C(=O)c2cccc(C(F)(F)F)c2)c2ccccc21 (centres unmarked)" target_under_test="NDM-1 (Klebsiella pneumoniae, UniProt C7C422)" result=958
compound="CC1(C(=O)Nc2nnn[nH]2)CN(C(=O)c2cccc(C(F)(F)F)c2)c2ccccc21 (centres unmarked)" target_under_test="NDM-1 (Klebsiella pneumoniae, UniProt C7C422)" result=200
compound="CC1(C(=O)Nc2nnn[nH]2)CN(S(C)(=O)=O)c2ccccc21 (centres unmarked)" target_under_test="NDM-1 (Klebsiella pneumoniae, UniProt C7C422)" result=161
compound="O=C(Nc1nnn[nH]1)C(Sc1ccccc1)c1ccccc1 (centres unmarked)" target_under_test="NDM-1 (Klebsiella pneumoniae, UniProt C7C422)" result=58
compound=O=C(Nc1nnn[nH]1)c1c[nH]c2ccccc12 target_under_test="NDM-1 (Klebsiella pneumoniae, UniProt C7C422)" result=354
compound="O=C(Nc1nnn[nH]1)C(Nc1ccccc1)c1ccccc1 (centres unmarked)" target_under_test="NDM-1 (Klebsiella pneumoniae, UniProt C7C422)" result=652
compound="CC(=O)N1CC(C)(C(=O)Nc2nnn[nH]2)c2ccccc21 (centres unmarked)" target_under_test="NDM-1 (Klebsiella pneumoniae, UniProt C7C422)" result=156
